# credit: paper PMC6193938

system: cell lines of Table 1; assay: MS detection of ZMP in cultured cells, average over cell lines; format: cell-based; conditions: Homo sapiens, low folate media; 12 cell lines
quantity-kind: pEC50
Give only the number. pEC50 is defined as minus log10 of concentration in molar units.

Query: pEC50; subject: O=c1[nH]ccc2cc(F)c(NS(=O)(=O)c3ccc(N4CC[C@@H](O)C4)s3)cc12 [LSN3213128]
8.31

* * *

test: Pharmacokinetic studies; format: in vivo; details: male, CD-1, whole blood (dried blood spots); mouse; oral 10 mg/kg vs intravenous 1 mg/kg
quantity-kind: bioavailability

Query: bioavailability; subject: O=c1[nH]ccc2cc(F)c(NS(=O)(=O)c3ccc(N4CC[C@@H](O)C4)s3)cc12 [LSN3213128]
24.6%
